biological target: Rac-1 (Homo sapiens); assay: Ras GTP binding domain inhibition assay (Cy3-GTP/Cy5-GTP competition); conditions: without SOS, read-out: Rac-1: % inh.
TEST_READOUT: inhibition at 20 µM

1) CO[C@H]1CC[C@@H](Nc2nc(-c3nccn3C)nc3sc(C(=O)NC(C)C)c(-c4ccccc4)c23)C1 [drawing 1059] = 76 to 100%
2) Cn1ccc(-c2sc3nc(-c4nccn4C)nc(NC4CCOCC4)c3c2-c2ccccc2)n1 [drawing 997] = 26 to 50%
3) Cn1ccnc1-c1nc(O)c(O)c(C(=O)NC2CCCC2)n1 [drawing 962] = 51 to 75%
4) COc1c(O)nc(-c2ccccn2)nc1Oc1cccnc1 [drawing 937] = 76 to 100%
5) Cc1c(-c2ccn(C)n2)sc2nc(-c3nccn3C)nc(NCCCS(C)(=O)=O)c12 [drawing 1051] = 76 to 100%
6) O=C(c1nc(-c2ccccn2)nc(O)c1O)N1CCc2ccccc2C1 [drawing 967] = 76 to 100%
7) Oc1nc(-c2cn3ccccc3n2)nc2c(-c3ccccn3)csc12 [drawing 951] = 1 to 25%
8) COC1CCN(c2nc(-c3nccn3C)nc3sc(-c4ccccc4CO)c(-c4ccccc4)c23)C1 (stereo not shown) [drawing 952] = 0%
9) CO[C@H]1C[C@@H](Nc2nc(-c3ncc[nH]3)nc3sc(-c4ccn(C)n4)c(-c4ccccc4)c23)C1 [drawing 1045] = 26 to 50%
10) CO[C@H]1C[C@@H](Nc2nc(-c3nccn3C)nc3sc(-c4ccn(C)n4)c(-c4ccccc4)c23)C1.Cl [drawing 1040] = 51 to 75%

---

molecular target: KRas G12D mutant (Homo sapiens, UniProt P01116, G12D); construct: fused on or other part: His tag, used for capture on nickel-coated plates; assay: Ras GTP binding domain inhibition assay (Cy3-GTP/Cy5-GTP competition); conditions: 20 μM; without SOS; read-out: KRas G12D mutant: % inh.
Listed here: items and their measured inhibition at 20 µM.
TEST_READOUT: inhibition at 20 µM

1) CN(Cc1ccccc1)C(=O)c1nc(-c2ccccn2)nc(O)c1O [drawing 799] = 26 to 50%
2) COC1CCN(c2nc(-c3nccn3C)nc3sc(Br)c(-c4ccccc4)c23)C1 (stereo not shown) [drawing 822] = 26 to 50%
3) CC(C)CN(C)C(=O)c1nc(-c2ccccn2)nc(O)c1O [drawing 798] = 26 to 50%
4) COC1CCN(c2nc(-c3nccn3C)nc3sc(-c4ccnn4C)c(-c4ccccc4)c23)C1.Cl (stereo not shown) = 51 to 75%
5) COCCNc1nc(-c2nccn2C)nc2sc(-c3cccc(OC)c3Cl)c(-c3ccc(OC)cc3)c12 [drawing 874] = 1 to 25%
6) CC(C)CNC(=O)c1nc(-c2ccccn2)nc(O)c1O [drawing 811] = 51 to 75%
7) CC(C)NC(=O)c1nc(-c2nccn2C)nc(O)c1O [drawing 830] = 51 to 75%
8) COC1CCN(c2nc(-c3nccn3C)nc3sc(-c4ccnc(N(C)C)c4)c(-c4ccccc4)c23)C1.Cl (stereo not shown) = 51 to 75%
9) COC1CCN(c2nc(-c3nccn3C)nc3sc(-c4ccc(CO)cc4)c(-c4ccccc4)c23)C1.Cl (stereo not shown) = 1 to 25%
10) COc1cccc(-c2sc3nc(-c4nccn4C)nc(N4CCC(OC)C4)c3c2-c2ccccc2)c1F.Cl (stereo not shown) [drawing 838] = 51 to 75%
11) COCCNc1nc(-c2cn(C)cn2)nc2sc(-c3cccc(OC)c3Cl)c(-c3ccc(OC)cc3)c12 [drawing 797] = 26 to 50%
12) COc1c(O)nc(-c2ccccn2)nc1Oc1ccccc1 [drawing 813] = 26 to 50%
13) Oc1nc(-c2cn3ccccc3n2)nc2c(-c3ccccn3)csc12 [drawing 816] = 26 to 50%
